System: HCT-15 colon
method: NCI tumour cell line growth inhibition, 48 h
Recorded TGI for the following molecules

For orientation, consider the following solved cases.
| molecule | TGI |
| --- | --- |
| Cc1ccc2cccc(-c3cccc4ccccc34)c2n1 | 91.1 µM |
| c1ccc(C2=NC3OC2c2ccccc23)cc1 (stereo not given) | > 10 µM |
| COc1ccc(OC)c(NCC(=O)n2nc(/C=C\c3ccc(O)c(OC)c3)cc2/C=C\c2ccc(O)c(OC)c2)c1 | 11.8 µM |
| CCOC(=O)C1C(c2ccc(Cl)cc2Cl)NC(c2ccc(C)cc2)C(C(=O)OC)S1(=O)=O (stereo not given) | > 100 µM |

Return reported TGI; argument: CC1(C)N=C(N)N=C(N)N1c1ccc(CCC(=O)Nc2ccc(S(=O)(=O)F)cc2)cc1
> 100 µM

Return reported TGI; argument: CN(/N=C1\C(=O)Nc2ccccc21)c1ccccc1
> 100 µM
